B1: GA-binding protein alpha chain, residues 172 to 250; numbered along this chain, Q06546 (parent)
chain: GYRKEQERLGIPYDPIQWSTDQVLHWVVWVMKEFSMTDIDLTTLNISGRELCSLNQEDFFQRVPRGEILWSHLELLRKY

- Variants of: B1
- protocol text: abundance fitness (aPCA) (normalised: wild type 0, dead -1); higher = more abundant; growth selection in yeast, the domain comes from the species named
- experimental setup: Homo sapiens
Kind request: treat -0.07 as inclusive, so abundance fitness at -0.07 or higher is met, anything lower is not met.

(Q) hey, is abundance fitness for this one >= -0.07? V63K
(A) not met

(Q) Then what about the variant S53V ?
(A) not met

(Q) Then what about the variant V23S ?
(A) not met

(Q) Then what about the variant R49N ?
(A) not met

(Q) Then what about the variant L69Y ?
(A) not met

(Q) Then what about the variant L24K ?
(A) met

(Q) Then what about the variant E5D ?
(A) not met

(Q) Then what about the variant S47H ?
(A) not met

(Q) Then what about the variant D21Y ?
(A) not met

(Q) Then what about the variant F59P ?
(A) not met

(Q) Then what about the variant G1Q ?
(A) met

(Q) Then what about the variant R77Q ?
(A) not met

(Q) Then what about the variant L41Y ?
(A) met

(Q) Then what about the variant I16E ?
(A) met

(Q) Then what about the variant M31N ?
(A) not met

(Q) Then what about the variant V27C ?
(A) not met

(Q) Then what about the variant N45C ?
(A) met

(Q) Then what about the variant S53W ?
(A) not met

(Q) Then what about the variant L44S ?
(A) not met

(Q) Then what about the variant N45R ?
(A) met
